The values you see were collected from patent US6013809A.

target_under_test: δ-opiate receptor (Rattus norvegicus, UniProt P33533)
Construct: freshly prepared rat brain was homogenised in 50 mmoles/l Tris-HCl (pH 7.4); from tissue; host or cells: rat brain without cerebellum, pons and medulla oblongata, male Wistar rats; membrane homogenate
Sequence (P33533 whole entry): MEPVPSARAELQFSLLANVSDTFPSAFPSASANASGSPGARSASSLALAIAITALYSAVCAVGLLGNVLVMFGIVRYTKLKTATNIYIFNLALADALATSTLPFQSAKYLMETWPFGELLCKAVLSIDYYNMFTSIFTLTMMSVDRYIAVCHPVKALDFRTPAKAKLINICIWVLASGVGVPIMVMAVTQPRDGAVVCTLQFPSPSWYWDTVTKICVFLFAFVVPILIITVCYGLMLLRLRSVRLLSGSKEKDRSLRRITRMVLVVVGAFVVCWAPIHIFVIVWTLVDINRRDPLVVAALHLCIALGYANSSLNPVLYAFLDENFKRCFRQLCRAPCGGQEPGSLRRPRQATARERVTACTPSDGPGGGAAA
assay_comment: δ-opiate receptor binding, displacement of (^3H)-2-D-Ala-deltorphin II on rat brain homogenates
Parameters: species or system rat (male Wistar rats)
test_context: 90 minutes at 37° C., pH 7.4, mean value ± standard deviation from three independent tests, read-out: δ-opiate receptor binding Ki
Structures can show the parent of a compound that is named as a salt.
observed_property: Ki (nM)
Answer in nM, number only, no unit symbol.

Example entries and their recorded answers appear below.
CN(C)CC1=C(c2cccc(O)c2)c2ccc3ccccc3c2OC1 [Example 2b, hydrochloride]
348
CN(C)CC1=C(c2cccc(O)c2)c2cc(O)ccc2OC1(C)C [Example 8, hydrochloride]
393
COc1ccc2c(c1)SCCC(CN(C)C)=C2c1cccc(O)c1 [Example 2h]
2.67
CN(C)CC1=C(c2cccc(O)c2)c2ccc3ccccc3c2SC1 [Example 2c, hydrochloride]
137

Now look at this one.
Reported Ki, compound CN(C)CC1=C(c2cccc(O)c2)c2ccc3c(c2OC1)OCCO3 [Example 2d, hydrochloride] : ____
18.4

###

target_under_test: δ-opiate receptor (Rattus norvegicus, UniProt P33533)
Construct: freshly prepared rat brain was homogenised in 50 mmoles/l Tris-HCl (pH 7.4); from tissue; host or cells: rat brain without cerebellum, pons and medulla oblongata, male Wistar rats; membrane homogenate
assay_comment: δ-opiate receptor binding, displacement of (^3H)-2-D-Ala-deltorphin II on rat brain homogenates
Parameters: species or system rat (male Wistar rats)
test_context: meaning of the second figure not stated, read-out: δ-opiate receptor binding Ki, second unlabelled figure printed behind the mean ± standard deviation
Structures can show the parent of a compound that is named as a salt.
observed_property: Ki (nM)
Quick note: give the figure in nM, leave out the unit.

Solved cases below.
CN(C)CC1=C(c2cccc(O)c2)c2ccc(O)cc2SCC1 [Example 11b, hydrochloride]
6.71
COc1ccc2c(c1)OCCC(CN(C)C)=C2c1cccc(O)c1 [Example 2g, hydrochloride]
6.01

Attention now shifts to the item below.
Looking for the measured Ki of COc1ccc2c(c1)SCCC(CN(C)C)=C2c1cccc(O)c1 [Example 2h] , can you help?
1.76

###

Readings of Ki for the listed compounds
target_under_test: δ-opiate receptor (Rattus norvegicus, UniProt P33533)
Construct: freshly prepared rat brain was homogenised in 50 mmoles/l Tris-HCl (pH 7.4); from tissue; host or cells: rat brain without cerebellum, pons and medulla oblongata, male Wistar rats; membrane homogenate
assay_comment: δ-opiate receptor binding, displacement of (^3H)-2-D-Ala-deltorphin II on rat brain homogenates
Parameters: species or system rat (male Wistar rats)
test_context: 90 minutes at 37° C., pH 7.4, mean value ± standard deviation from three independent tests, read-out: δ-opiate receptor binding Ki
Counter-ions that a name gives are not always drawn.
Please append the unit to your numeric answer.

Worked examples, 2 compounds total:
CN(C)CC1=C(c2cccc(O)c2)c2ccccc2OCC1 [Example 2e, hydrochloride]
8.5 nM
COc1ccc2c(c1)OCCC(CN(C)C)=C2c1cccc(O)c1 [Example 2g, hydrochloride]
6.19 nM

Reported Ki, compound CN(C)CC1=C(c2cccc(O)c2)c2ccc(O)cc2SCC1 [Example 11b, hydrochloride] : ____
6.43 nM

Quick one: Ki of CN(C)CC1=C(c2cccc(O)c2)c2ccccc2SCC1 [Example 1, hydrochloride] ?
10.2 nM
